Cited source for all entries: patent US20210196796A1

Target: T1, orthogonal hCD122 receptor (hoRb), hCD122 with H133D and Y134F (human, UniProt P14784 27-550)
T1 sequence: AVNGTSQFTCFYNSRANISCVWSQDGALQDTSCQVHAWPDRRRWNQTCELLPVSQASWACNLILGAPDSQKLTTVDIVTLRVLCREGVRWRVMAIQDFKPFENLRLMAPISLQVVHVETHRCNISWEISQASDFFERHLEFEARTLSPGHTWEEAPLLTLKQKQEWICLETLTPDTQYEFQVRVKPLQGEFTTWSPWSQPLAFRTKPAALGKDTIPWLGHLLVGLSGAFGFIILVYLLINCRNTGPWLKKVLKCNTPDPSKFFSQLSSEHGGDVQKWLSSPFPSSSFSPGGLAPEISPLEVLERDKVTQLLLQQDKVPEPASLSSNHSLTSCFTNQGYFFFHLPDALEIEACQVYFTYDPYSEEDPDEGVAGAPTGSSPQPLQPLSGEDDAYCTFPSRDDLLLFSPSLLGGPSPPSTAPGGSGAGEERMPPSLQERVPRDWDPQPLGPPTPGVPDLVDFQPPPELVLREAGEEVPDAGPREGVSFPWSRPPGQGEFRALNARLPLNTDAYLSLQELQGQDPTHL
Assay: cell-based or functional assay
PROPERTY_LABEL: 3F8 Ortho Proliferation Signal 1:10 (cts/min)

The cases that follow already have their 3F8 Ortho Proliferation Signal 1:10 on record.
INSERT INTO measurements (binder, property_label, quantitative_readout) VALUES
  ('KQVLKA (ligand) APTSSSTKKTQLQLKQLLVLLKAILNGINNYKNPKLTRMLTFKFYMPKKATELKHLQCLEEELKPLEEVLNLAQSKNFHLRPRDLISNINVIVLELKGSETTFMCEYADETATIVEFLNRWITFCQSIISTLT', '3F8 Ortho Proliferation Signal 1:10', 36800),
  ('SQVLKW (ligand) APTSSSTKKTQLQLSQLLVLLKWILNGINNYKNPKLTRMLTFKFYMPKKATELKHLQCLEEELKPLEEVLNLAQSKNFHLRPRDLISNINVIVLELKGSETTFMCEYADETATIVEFLNRWITFCQSIISTLT', '3F8 Ortho Proliferation Signal 1:10', 32600),
  ('L18K, SQVLKA (ligand) APTSSSTKKTQLQLSQLKVLLKAILNGINNYKNPKLTRMLTFKFYMPKKATELKHLQCLEEELKPLEEVLNLAQSKNFHLRPRDLISNINVIVLELKGSETTFMCEYADETATIVEFLNRWITFCQSIISTLT', '3F8 Ortho Proliferation Signal 1:10', 42800);

a. Q74N, SQVLKA (ligand) APTSSSTKKTQLQLSQLLVLLKAILNGINNYKNPKLTRMLTFKFYMPKKATELKHLQCLEEELKPLEEVLNLANSKNFHLRPRDLISNINVIVLELKGSETTFMCEYADETATIVEFLNRWITFCQSIISTLT
b. Q126G, SQVLKA (ligand) APTSSSTKKTQLQLSQLLVLLKAILNGINNYKNPKLTRMLTFKFYMPKKATELKHLQCLEEELKPLEEVLNLAQSKNFHLRPRDLISNINVIVLELKGSETTFMCEYADETATIVEFLNRWITFCGSIISTLT
c. SQVLLA (ligand) APTSSSTKKTQLQLSQLLVLLLAILNGINNYKNPKLTRMLTFKFYMPKKATELKHLQCLEEELKPLEEVLNLAQSKNFHLRPRDLISNINVIVLELKGSETTFMCEYADETATIVEFLNRWITFCQSIISTLT
Asked: Form: Sort by [3F8 Ortho Proliferation Signal 1:10] Order [ ascending ] Lab note: record answer as labels in requested order.
Given back: b, c, a
(b: 1100 cts/min, c: 9730 cts/min, a: 36400 cts/min)
